# System under test: human FcγRIIIa-158V (human)
# Assay overview: SPR; Biacore T200; analysis of Fc-Fc receptor binding; who was immobilised and the conditions are not given
Measure name: Kd (nM)
All answers are understood in nM, so give the number only.

These solved cases illustrate the format of a correct answer.
Binder	Unit of measure	Kd
Desferrioxamine-HuE71-IgG1-Afuco (antibody, V domains shown) VH: QVQLVQPGDELVKPGASVKLSCKASGYTFTSYWMQWVKQRPGQGLEWIGEINPSNGRTNYNEMFKSKAVLSVDKSVSTAYMQLSSLTAEDTAVYYCALYDGYYAMDYWGQGTLVTVSS VL: DIVMTQSPSSLAVSVGERVTMSCKSSQSLLYSSNQKNYLAWYQQKPGQSPKLLIYWASTRESGVPDRFSGSGSGTDFTLTISSVKAEDVALYYCQQYHSYPFTFGQGTKLEIK	nM	294
HuE71-IgG1 (antibody, V domains shown) VH: QVQLVQPGDELVKPGASVKLSCKASGYTFTSYWMQWVKQRPGQGLEWIGEINPSNGRTNYNEMFKSKAVLSVDKSVSTAYMQLSSLTAEDTAVYYCALYDGYYAMDYWGQGTLVTVSS VL: DIVMTQSPSSLAVSVGERVTMSCKSSQSLLYSSNQKNYLAWYQQKPGQSPKLLIYWASTRESGVPDRFSGSGSGTDFTLTISSVKAEDVALYYCQQYHSYPFTFGQGTKLEIK	nM	873
HuE71-IgG1-Afuco (antibody, V domains shown) VH: QVQLVQPGDELVKPGASVKLSCKASGYTFTSYWMQWVKQRPGQGLEWIGEINPSNGRTNYNEMFKSKAVLSVDKSVSTAYMQLSSLTAEDTAVYYCALYDGYYAMDYWGQGTLVTVSS VL: DIVMTQSPSSLAVSVGERVTMSCKSSQSLLYSSNQKNYLAWYQQKPGQSPKLLIYWASTRESGVPDRFSGSGSGTDFTLTISSVKAEDVALYYCQQYHSYPFTFGQGTKLEIK	nM	286

Req: Need Kd, item Desferrioxamine-HuE71-IgG1 (antibody, V domains shown) VH: QVQLVQPGDELVKPGASVKLSCKASGYTFTSYWMQWVKQRPGQGLEWIGEINPSNGRTNYNEMFKSKAVLSVDKSVSTAYMQLSSLTAEDTAVYYCALYDGYYAMDYWGQGTLVTVSS VL: DIVMTQSPSSLAVSVGERVTMSCKSSQSLLYSSNQKNYLAWYQQKPGQSPKLLIYWASTRESGVPDRFSGSGSGTDFTLTISSVKAEDVALYYCQQYHSYPFTFGQGTKLEIK
Resp: 664
